- ASSAY SYSTEM: Recombinant STAT3 protein (STAT3 (G127-I722)) (Homo sapiens, UniProt P40763)
- Construct: Recombinant STAT3 protein (STAT3 (G127-I722))
- Sequence (P40763 127-722): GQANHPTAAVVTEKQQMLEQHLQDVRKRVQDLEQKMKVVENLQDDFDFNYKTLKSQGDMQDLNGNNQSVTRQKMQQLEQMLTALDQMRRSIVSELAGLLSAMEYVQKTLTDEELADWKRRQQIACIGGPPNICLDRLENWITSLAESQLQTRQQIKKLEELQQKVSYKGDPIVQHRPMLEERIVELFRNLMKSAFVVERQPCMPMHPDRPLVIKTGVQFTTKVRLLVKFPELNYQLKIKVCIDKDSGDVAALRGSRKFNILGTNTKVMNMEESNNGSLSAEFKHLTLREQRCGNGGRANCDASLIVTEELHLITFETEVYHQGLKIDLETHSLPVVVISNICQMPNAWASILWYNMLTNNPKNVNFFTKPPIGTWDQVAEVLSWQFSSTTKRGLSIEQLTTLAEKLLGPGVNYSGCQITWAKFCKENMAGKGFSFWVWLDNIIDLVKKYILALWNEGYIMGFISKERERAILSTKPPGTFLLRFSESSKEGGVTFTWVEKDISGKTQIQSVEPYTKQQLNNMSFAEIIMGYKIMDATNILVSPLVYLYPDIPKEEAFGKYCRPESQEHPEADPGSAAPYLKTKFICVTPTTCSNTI
- ASSAY METHOD TEXT: STAT3 Fluorescence Polarization (FP) Assay
- Assay type: binding
- RUN PARAMETERS: STAT3 25 nM, probe 5-FAM-GpYLPQTV-NH2 2 nM, 45-minute incubation; read-out: STAT3 (FP assay IC50)
pIC50: −log10 of the molar value.
// values below are reported pIC50

Below, 2 compounds whose answers are already recorded.
>  <COMPOUND>
O=C(N[C@H]1CCC[C@H]2CC[C@@H](C(=O)N3CC(c4cccnc4)C3)N2C1=O)c1cc2cc(CP(=O)(O)O)ccc2s1

>  <RESULT>
6.00 to 7.00

$$$$
>  <COMPOUND>
COc1cccc([C@H]2CN(C(=O)[C@@H]3CC[C@@H]4CCCC[C@H](NC(=O)c5cc6cc(C(F)(F)P(=O)(O)O)ccc6s5)C(=O)N43)C[C@@H]2C#N)n1 (racemic)

>  <RESULT>
6.00 to 7.00

$$$$

# input for lookup
Fill blank: measured pIC50 of the compound O=C(N[C@H]1CCCC[C@H]2CC[C@@H](C(=O)N3CC4(CN(C(=O)Cc5ccccc5)C4)C3)N2C1=O)c1cc2cc(C(F)(F)P(=O)(O)O)ccc2s1 is ____.
6.00 to 7.00
